pIC50: −log10 of the molar value.
Published pIC50 for Tyrosine-protein kinase CSK (Homo sapiens, UniProt P41240), assembled from different documents, is shown next.

Before answering, review these 5 worked examples.
{"molecule": "C[C@@H]1CCN(C(=O)CC#N)C[C@@H]1n1ccc2cnc3[nH]cc(C#N)c3c21", "subject-of-test": "Tyrosine-protein kinase CSK (Homo sapiens, UniProt P41240)", "quantity-name": "pIC50", "value": "< 6.00"}
{"molecule": "CC(C)(C)c1nnc2ccc(-c3ocnc3-c3ccc(F)cc3F)cn12", "subject-of-test": "Tyrosine-protein kinase CSK (Homo sapiens, UniProt P41240)", "quantity-name": "pIC50", "value": "< 5.00"}
{"molecule": "CC[C@@H]1C(=O)N(C)c2cnc(Nc3ccc(C(=O)NC4CCN(C)CC4)cc3OC)nc2N1C1CCCC1", "subject-of-test": "Tyrosine-protein kinase CSK (Homo sapiens, UniProt P41240)", "quantity-name": "pIC50", "value": "< 5.00"}
{"molecule": "O=C(NCCO)C1=Cc2c(ncnc2Nc2ccc(Oc3cccc4sccc34)c(Cl)c2)NCC1", "subject-of-test": "Tyrosine-protein kinase CSK (Homo sapiens, UniProt P41240)", "quantity-name": "pIC50", "value": "< 5.00"}
{"molecule": "CC(C)c1nnc2ccc(-c3ocnc3-c3cc(F)c(F)cc3F)cn12", "subject-of-test": "Tyrosine-protein kinase CSK (Homo sapiens, UniProt P41240)", "quantity-name": "pIC50", "value": "< 5.00"}

Provide the reported pIC50 of each entry below, same order.
1. CC(C)c1nnc2ccc(-c3ocnc3-c3ccccc3)cn12
2. CNc1ncnc(-c2cccnc2Oc2ccc(F)c(C(=O)Nc3cc(C(F)(F)F)ccc3N(C)CCCN(C)C)c2)n1
3. COc1ccc(CCOc2ccc(C(=O)/C=C/c3ccc(O)c(O)c3)cc2OC)cc1OC

< 5.00
4.60
5.29
